Reference source for all entries: patent US7998965B2

# ASSAY_TARGET: purified recombinant human Aggrecanase-2 (Ag2t-Phe628-Strep) (Homo sapiens)
# Construct: the form used is denoted as Ag2t-Phe628-Strep (MW=41,737)
# Sequence (Q9UNA0 262-628): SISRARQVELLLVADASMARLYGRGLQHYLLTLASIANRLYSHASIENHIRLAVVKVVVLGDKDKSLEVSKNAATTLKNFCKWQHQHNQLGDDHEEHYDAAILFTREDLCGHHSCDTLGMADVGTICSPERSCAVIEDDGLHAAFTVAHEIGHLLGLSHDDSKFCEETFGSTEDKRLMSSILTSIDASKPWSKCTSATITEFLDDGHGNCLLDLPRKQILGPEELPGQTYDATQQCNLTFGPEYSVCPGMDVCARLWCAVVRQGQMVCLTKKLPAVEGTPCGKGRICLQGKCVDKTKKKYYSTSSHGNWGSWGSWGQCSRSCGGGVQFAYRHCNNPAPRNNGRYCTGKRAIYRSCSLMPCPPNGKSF
# ASSAY_TEXT: In vitro fluorescence screen for Aggrecanase-2 inhibitors
# Format: biochemical
# MEASUREMENT_CONTEXT: Table 2; read-out: Agg 2 IC50
pIC50: −log10 of the molar value.
MEASUREMENT_NAME: pIC50

[[record]]
compound = "COc1ccc(-c2ccc(C(=O)N[C@@H](CCC(=O)O)C(=O)NC(C)(C)Cc3ccccc3)cc2)c(OC)c1 [Example 17Q]"
value = "< 4.52"

[[record]]
compound = "O=C(O)CC[C@H](NC(=O)c1cccc(Oc2ccccc2)c1)C(=O)NCc1ccccc1"
value = "< 3.70"


Okay, next one:
Query string: Query (compound): `O=C(O)CC[C@H](NC(=O)C1c2ccccc2-c2ccccc21)C(=O)NCCCCCCO` ; field requested: pIC50
Result string: ~4.17
